# Test system: Caco-2 cells
# PROCEDURE_DETAILS: Membrane permeability test using Caco-2 cells with preincubation
# Assay type: in vitro ADME
# RUN_CONDITIONS: Caco-2 cells, preincubation 20 to 24 hours; apical FaSSIF/HBSS 1% DMSO pH 6.0, basal HBSS 4% BSA pH 7.4; basal sample at 180 minutes
Starred links: 1 amine or outer side, 2 acyl side, 3 side chain; linkers in the order of their positions; H or OH if unused. Positions of bridges follow the written chain, without caps; N, C: chain ends. Non-standard residues stand in square brackets, D forms with d. Residues, ends and D or L forms follow the SMILES beside them. *: point of attachment. NMeF = CN[C@@H](Cc1ccccc1)C(=O)O; NMeI = CC[C@H](C)[C@H](NC)C(=O)O; NMeβAla = CN(CCC(=O)[*:2])[*:1]; NMeL = CN[C@@H](CC(C)C)C(=O)O; NMeAbu = CC[C@H](NC)C(=O)O; NMeA = CN[C@@H](C)C(=O)O; Piperidide = C1CCN(*)CC1; Sar = CNCC(=O)O
MEASURED_PROPERTY: Caco2 Papp (10^-6 cm/sec)

Query :: Entry CC[C@H](C)[C@H]1C(=O)N[C@@H]([C@@H](C)O)C(=O)N(C)CC(=O)N(C)[C@@H](CC(C)C)C(=O)N(C)[C@@H](Cc2ccccc2)C(=O)N[C@H](C(=O)N2CCCCC2)CC(=O)N(C)[C@@H](C)C(=O)N[C@@H](CC(C)C)C(=O)N(C)[C@@H](Cc2ccccc2)C(=O)N(C)CCC(=O)N(C)[C@@H](CC(C)C)C(=O)N[C@@H](CC(C)C)C(=O)N(C)[C@@H](C)C(=O)N(C)[C@@H](CC)C(=O)N1C [pd003] ([NMeA]L[NMeF][NMeβAla][NMeL]L[NMeA][NMeAbu][NMeI]T[Sar][NMeL][NMeF]D-Piperidide; lactam N-14) has what Caco2 Papp (10^-6 cm/sec)?
Result :: 0.27 10^-6 cm/sec
